target.desc: GST-LSD1 (Homo sapiens)
details: GST-LSD1, peroxidase-coupled assay
metric: k(inact) (min⁻¹)

Cl.Cl.NNCCc1ccc(NC(=O)Cc2ccccc2)cc1 [Compound 12b] : 0.20
NNCCc1ccc(NC(=O)/C=C/c2ccccc2)cc1.O=S(=O)(O)O [Compound 13] : 0.17
CN(C(=O)CCCc1ccccc1)c1ccc(CCNN)cc1.O=C(O)C(=O)O [Compound 12l] : 0.24
CS(=O)(=O)Oc1cccc(CCC(=O)Nc2ccc(CCNN)cc2)c1.O=C(O)C(=O)O [Compound 12k] : 0.17
Cl.Cl.NNCCCOc1ccccc1 [Compound 10b] : 0.22

(I) NNCCc1ccc(NC(=O)CCCCc2ccccc2)cc1.O=C(O)C(=O)O [Compound 12e]
(II) Cl.Cl.NNCCCCc1ccccc1 [Compound 9h, (4-Phenylbutyl)hydrazine dihydrochloride]
(III) Cl.Cl.NNCCCc1ccccc1 [Compound 9c]
Task item: Please produce an ascending ranking of these molecules based on k(inact). Write the labels in rank order as requested.
Reply: II, I, III
(II: 0.12 min⁻¹, I: 0.22 min⁻¹, III: 0.32 min⁻¹)
